The following molecules have recorded MIC on Streptococcus mutans.

[
  {
    "MOLECULE": "CC[C@H](C)[C@H](NC(=O)[C@H](CC(N)=O)NC(=O)[C@H](CCCCN)NC(=O)[C@H](CC(C)C)NC(=O)[C@H](CO)NC(=O)[C@H](CCC(N)=O)NC(=O)[C@H](CC(C)C)NC(=O)[C@@H](NC(=O)[C@@H](N)[C@@H](C)O)[C@@H](C)CC)C(=O)N[C@@H](Cc1ccccc1)C(=O)N[C@@H](CCCCN)C(=O)O [TILQSLKNIFK]",
    "MIC": "≥ 95.8 µM"
  },
  {
    "MOLECULE": "NCCCC[C@H](NC(=O)[C@H](Cc1c[nH]c2ccccc12)NC(=O)[C@H](Cc1c[nH]c2ccccc12)NC(=O)[C@H](CCCCN)NC(=O)[C@H](CCCN=C(N)N)NC(=O)[C@H](CCCN=C(N)N)NC(=O)[C@@H](N)CCCN=C(N)N)C(=O)O [RRRKWWK]",
    "MIC": "≥ 224 µM"
  },
  {
    "MOLECULE": "CC(C)C[C@H](NC(=O)[C@@H](NC(=O)[C@H](CCCN=C(N)N)NC(=O)[C@H](CCCCN)NC(=O)[C@@H](NC(=O)[C@H](CCCCN)NC(=O)[C@H](CCC(N)=O)NC(=O)[C@H](C)NC(=O)[C@H](CC(C)C)NC(=O)[C@@H](N)CCCCN)C(C)C)C(C)C)C(=O)N[C@@H](CCCN=C(N)N)C(=O)O [KLAQKVKRVLR]",
    "MIC": "≥ 93.4 µM"
  }
]

---

The following compounds have recorded MIC on Staphylococcus aureus NCTC 10788.

[
  {
    "CHEMICAL SMILES": "CC[C@H](C)[C@H](NC(=O)[C@@H](NC(=O)CNC(=O)[C@@H]1CCCN1C(=O)[C@@H](NC(=O)[C@@H](NC(=O)[C@H](CC(N)=O)NC(=O)[C@H](C)NC(=O)[C@H](C)NC(=O)[C@@H](NC(=O)[C@H](CCCCN)NC(=O)[C@H](CC(C)C)NC(=O)[C@@H](NC(=O)CNC(=O)[C@@H]1CCCN1C(=O)[C@H](CC(C)C)NC(=O)[C@@H](N)Cc1ccccc1)[C@@H](C)CC)C(C)C)C(C)C)C(C)C)C(C)C)C(=O)O",
    "MEASURED ON": "Staphylococcus aureus NCTC 10788",
    "MIC": "≥ 512 µM"
  },
  {
    "CHEMICAL SMILES": "CC(C)C[C@H](NC(=O)[C@H](CC(C)C)NC(=O)CNC(=O)CNC(=O)[C@H](CC(C)C)NC(=O)[C@H](CC(C)C)NC(=O)CNC(=O)[C@H](CC(C)C)NC(=O)[C@@H](N)Cc1ccccc1)C(N)=O",
    "MEASURED ON": "Staphylococcus aureus NCTC 10788",
    "MIC": "≥ 284 µM"
  },
  {
    "CHEMICAL SMILES": "CC[C@H](C)[C@H](NC(=O)[C@H](CC(C)C)NC(=O)[C@H](C)NC(=O)[C@H](CO)NC(=O)[C@@H](NC(=O)[C@H](CC(C)C)NC(=O)[C@@H](N)CC(N)=O)C(C)C)C(=O)N[C@@H](CCC(=O)O)C(=O)NCC(=O)N[C@@H](CCCN=C(N)N)C(=O)N[C@@H](CCCCN)C(=O)N[C@@H](Cc1ccc(O)cc1)C(=O)N[C@@H](CC(C)C)C(=O)N[C@@H](CCCCN)C(=O)N[C@@H](CC(N)=O)C(=O)N[C@H](C(=O)N[C@@H](CC(C)C)C(=O)N[C@@H](CCCCN)C(=O)O)C(C)C",
    "MEASURED ON": "Staphylococcus aureus NCTC 10788",
    "MIC": "≥ 62.2 µM"
  }
]
